logD: recorded values
test_protocol: Distribution coefficient, log D of the compound by shake flask method
Type: physicochemical
condition_description: octanol/water
measure_name: logD

In [3]: df
Out[3]:
                                   molecule  value_observed
0  C[C@H](Oc1cc2cc(F)ccc2nc1N)c1cc(F)c(F)cc1-n1cccn1             4.1
1  C[C@H](Oc1cc2cc(C(N)=O)ccc2nc1N)c1cc(F)ccc1-n1cccn1               3
2  C[C@H](Oc1cc2ccccc2nc1N)c1cc(F)ccc1-n1cccn1               4
3  C[C@H](Oc1cc2cc(F)cc(F)c2nc1N)c1[nH]c(=O)ccc1-n1cccn1             2.6
4  C[C@H](Oc1cc2cc(F)ccc2nc1N)c1[nH]c(=O)ccc1-n1cccn1 [PF-07059013]             2.4
5  C[C@H](Oc1cc2cc(C#N)ccc2nc1N)c1cc(F)c(F)cc1-n1cccn1             4.3
6  C[C@H](Oc1cc2cc(C(N)=O)ccc2nc1N)c1cc2[nH]ncc2cc1-n1cccn1             2.7
7  C[C@H](Oc1cc2cc(F)cc(F)c2nc1N)c1cc(C(=O)O)ccc1-n1cccn1               1
8  C[C@H](Oc1cc2cc(F)ccc2nc1N)c1cc2c(cnn2CC(=O)O)cc1-n1cccn1             0.5

---

test_protocol: Distribution coefficient, log D of the compound by shake flask method
Format: physicochemical
condition_description: octanol/water
logD: recorded values
measure_name: logD

>>> print(df.to_string())
                            compound_string  measure_name  value_observed
0  C[C@H](Oc1cc2c(F)ccc(F)c2nc1N)c1cc(C(=O)O)ccc1-n1cccn1          logD             1.1
1  C[C@H](Oc1cc2cc(C(N)=O)cc(F)c2nc1N)c1ncc(F)cc1-n1cccn1          logD             2.1
2  Cc1n[nH]cc1-c1cnc(N)c(O[C@@H](C)c2cc(F)ccc2-n2cccn2)c1          logD             3.2
3  C[C@H](Oc1cc2cc(F)ccc2nc1N)c1cc(C(=O)O)ccc1-n1cccn1          logD             0.9
4  C[C@H](Oc1cc2cc(C(N)=O)ccc2nc1N)c1ncc(F)cc1-n1cccn1          logD             1.9
5  C[C@H](Oc1cc2cc(C(N)=O)ccc2nc1N)c1cc2c(cnn2CCO)cc1-n1cccn1          logD             2.1
6  C[C@H](Oc1cc2cc(C(N)=O)ccc2nc1N)c1cc(F)c(F)cc1-n1cccn1          logD             3.2
7  C[C@H](Oc1cc2cc(C(N)=O)ccc2nc1N)c1nc(OCCO)ccc1-n1cccn1          logD             1.8
8  C[C@H](Oc1cc2cc(C#N)ccc2nc1N)c1cc(F)ccc1-n1cccn1          logD             3.8
9  C[C@H](Oc1cc2cc(F)ccc2nc1N)c1cc2c(cnn2CCO)cc1-n1cccn1          logD             3.3
